- Species on record: Rattus norvegicus
- TEST_DESCRIPTION: Pharmacokinetic property (AUC) in rat
- Format: ADME, organism-based
- REPORTED_CONDITIONS: in vivo

| CHEMICAL_STRUCTURE | AUC (ng·h/mL) |
| --- | --- |
| COc1ccc(-c2cc(=O)n(C/C=C/c3ccc(Cl)cc3)nc2-c2ccc(OC)cc2)cc1 | 3900 |

###

- TEST_DESCRIPTION: Pharmacokinetic property (t1/2) in rat
- Format: ADME, organism-based
- REPORTED_CONDITIONS: in vivo
TEST_READOUT: half-life (h)

| CHEMICAL_STRUCTURE | TEST_READOUT | NUMERIC_RESULT |
| --- | --- | --- |
| COc1ccc(-c2cc(=O)n(C/C=C/c3ccc(Cl)cc3)nc2-c2ccc(OC)cc2)cc1 | half-life | 4.9 |

###

- TEST_DESCRIPTION: Pharmacokinetic property (Tmax) in rat
- Assay type: ADME, organism-based
- REPORTED_CONDITIONS: in vivo
TEST_READOUT: Tmax (h)

| CHEMICAL_STRUCTURE | TEST_READOUT | DISPLAY_UNIT | NUMERIC_RESULT |
| --- | --- | --- | --- |
| COc1ccc(-c2cc(=O)n(C/C=C/c3ccc(Cl)cc3)nc2-c2ccc(OC)cc2)cc1 | Tmax | h | 7 |
